These entries and their values trace back to ChEMBL document CHEMBL2029225.

assay.comment: Selectivity ratio of EC50 for human HEK293 cells to EC50 for Leishmania major Friedlin
Format: ADME, cell-based
setup.conditions: read-out: Ratio EC50

>  <structure.as.smiles>
CCCC[n+]1cccc(CCCCCCCCCCCCCO)c1

>  <selectivity ratio>
145

$$$$
>  <structure.as.smiles>
C[n+]1cccc(CCCCCCCCCCCCCI)c1

>  <selectivity ratio>
149

$$$$

====

Recorded selectivity ratio values for a group of compounds are listed next.
assay.comment: Selectivity ratio of EC50 for human HEK293 cells to EC50 for Plasmodium falciparum 3D7
Assay type: ADME, cell-based
setup.conditions: read-out: Ratio EC50
recorded.metric: selectivity ratio

>  <structure.as.smiles>
c1cc2c[n+](c1)CCCCCCCCCCCCCc1ccc[n+](c1)CCCCCCCCCCCCCc1ccc[n+](c1)CCCCCCCCCCCCC2

>  <value.reported>
493

$$$$
>  <structure.as.smiles>
OCCCCCCCCCCCCCc1ccc[n+](CCCCCCCCCCCCCc2ccc[n+](CCCCCCCCCCCCCc3cccnc3)c2)c1

>  <value.reported>
237

$$$$
